- system-tested: Kappa-type opioid receptor (Homo sapiens) (UniProt P41145)
- Sequence (P41145 whole entry): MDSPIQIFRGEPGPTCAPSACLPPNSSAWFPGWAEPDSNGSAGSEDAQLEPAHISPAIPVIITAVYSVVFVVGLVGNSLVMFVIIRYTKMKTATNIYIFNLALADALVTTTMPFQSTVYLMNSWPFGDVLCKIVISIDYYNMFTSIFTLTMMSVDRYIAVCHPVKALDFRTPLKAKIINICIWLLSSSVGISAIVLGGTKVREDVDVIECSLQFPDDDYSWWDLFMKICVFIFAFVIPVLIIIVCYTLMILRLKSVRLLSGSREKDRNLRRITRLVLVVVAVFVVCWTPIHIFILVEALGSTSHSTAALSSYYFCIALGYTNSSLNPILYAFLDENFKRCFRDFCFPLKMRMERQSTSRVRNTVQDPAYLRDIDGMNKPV
- protocol-description: Antagonist activity at human cloned kappa opioid receptor expressed in CHO cells assessed as inhibition of U69593-stimulated [35S]GTPgammaS binding in presence of 10 uM GDP
- Format: functional, cell-based
Definition: the class of an entry is the range in 0: < 10 nM; 1: ≥ 10 nM and < 20 nM; 2: ≥ 20 nM that contains its Ke.

The following compounds have reported results that may help.
# chemical-smiles, qualitative-label
rows = [
    ("COc1ccc(C2(C(=O)N[C@@H]3C[C@@H]4C[C@](c5cccc(O)c5)(C3)[C@@H](C)CN4CCCc3ccccc3)CCCC2)cc1", 0),
    ("C[C@H]1CN(C)[C@@H]2C[C@@H](NC(=O)C3(c4ccccc4)CCCC3)C[C@@]1(c1cccc(O)c1)C2", 2),
    ("C[C@H]1CN(CCOc2ccccc2)[C@@H]2C[C@@H](NC(=O)C(C)(C)c3ccccc3)C[C@@]1(c1cccc(O)c1)C2", 2),
    ("C[C@H]1CN(CCCc2ccccc2)[C@@H]2C[C@@H](NC(=O)C(C)(C)c3ccccc3)C[C@@]1(c1cccc(O)c1)C2", 1),
    ("C[C@H]1CN(CCCc2ccccc2)[C@@H]2C[C@@H](NC(=O)C3(c4ccsc4)CCCC3)C[C@@]1(c1cccc(O)c1)C2", 0),
]

Q. Kindly identify the class of "C[C@H]1CN(CCCc2ccccc2)[C@@H]2C[C@@H](NC(=O)C3(c4ccc5ccccc5c4)CCCC3)C[C@@]1(c1cccc(O)c1)C2" .
A. 2

Q. Kindly identify the class of "C[C@H]1CN(CCCc2ccccc2)[C@@H]2C[C@@H](NC(=O)C3(c4cccc5ccccc45)CCCC3)C[C@@]1(c1cccc(O)c1)C2" .
A. 2

Q. Kindly identify the class of "Cc1ccccc1/C=C/CN1C[C@H](C)[C@@]2(c3cccc(O)c3)C[C@H](NC(=O)C(C)(C)c3ccccc3)C[C@@H]1C2" .
A. 0

Q. Kindly identify the class of "Cc1ccccc1/C=C/CN1C[C@H](C)[C@@]2(c3cccc(O)c3)C[C@H](NC(=O)C3(c4ccccc4)CCCC3)C[C@@H]1C2" .
A. 0

Q. Kindly identify the class of "C[C@H]1CN(C/C=C/c2ccccc2)[C@@H]2C[C@@H](NC(=O)C(C)(C)c3ccccc3)C[C@@]1(c1cccc(O)c1)C2" .
A. 1

Q. Kindly identify the class of "CCC(CC)(C(=O)N[C@@H]1C[C@@H]2C[C@](c3cccc(O)c3)(C1)[C@@H](C)CN2CCCc1ccccc1)c1ccccc1" .
A. 1

Q. Kindly identify the class of "C[C@H]1CN(CCCc2ccccc2)[C@@H]2C[C@@H](NC(=O)C3(c4ccccc4)CCC3)C[C@@]1(c1cccc(O)c1)C2" .
A. 1

Q. Kindly identify the class of "C[C@H]1CN(CCCc2ccccc2)[C@@H]2C[C@@H](NC(=O)C3(c4ccccc4)CCCCCC3)C[C@@]1(c1cccc(O)c1)C2" .
A. 1
